B1: tRNA (parent)
chain: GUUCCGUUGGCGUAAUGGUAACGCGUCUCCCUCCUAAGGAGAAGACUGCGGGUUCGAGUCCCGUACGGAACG

# Variants of: B1
# PROTOCOL: yeast fitness relative to wild type (ratio to wild type); higher = fitter; tRNA-Arg(CCU), competitive growth, 37 C, YPD
This sample holds only a part of the variants without activity.
The entries below come with measured yeast fitness values attached.

[
  {
    "VAR": "U13C A15G C29A",
    "yeast fitness": 0.508
  },
  {
    "VAR": "C5U C22U C33U C49U C62G",
    "yeast fitness": "≤ 0.5"
  },
  {
    "VAR": "U3G C49G G56A",
    "yeast fitness": "≤ 0.5"
  },
  {
    "VAR": "C4G G12A G38C C66U",
    "yeast fitness": "≤ 0.5"
  },
  {
    "VAR": "U3C G12A C46U G52C",
    "yeast fitness": "≤ 0.5"
  },
  {
    "VAR": "C27A C31G G44C",
    "yeast fitness": "≤ 0.5"
  },
  {
    "VAR": "A20U C27G C29U",
    "yeast fitness": "≤ 0.5"
  },
  {
    "VAR": "A20G G48C",
    "yeast fitness": 1
  },
  {
    "VAR": "A14C U59C",
    "yeast fitness": 0.687
  },
  {
    "VAR": "C5A U7C C30A C31U",
    "yeast fitness": "≤ 0.5"
  },
  {
    "VAR": "A15G A20U C29G A43G G67A",
    "yeast fitness": "≤ 0.5"
  },
  {
    "VAR": "U35C A37C C62U A65C",
    "yeast fitness": "≤ 0.5"
  },
  {
    "VAR": "G6A C49A G63A",
    "yeast fitness": "≤ 0.5"
  },
  {
    "VAR": "A15C G50A C60G U64G",
    "yeast fitness": "≤ 0.5"
  },
  {
    "VAR": "G12A C27G A36U A65U",
    "yeast fitness": "≤ 0.5"
  },
  {
    "VAR": "U47C G52A",
    "yeast fitness": 0.724
  },
  {
    "VAR": "G38A C62U A70U",
    "yeast fitness": 0.577
  },
  {
    "VAR": "G12C C55U C61G",
    "yeast fitness": "≤ 0.5"
  },
  {
    "VAR": "U3G C31U C49U",
    "yeast fitness": 0.681
  },
  {
    "VAR": "G9A A69U",
    "yeast fitness": 1.04
  },
  {
    "VAR": "C24U U26G G51A",
    "yeast fitness": "≤ 0.5"
  },
  {
    "VAR": "G6A U16G",
    "yeast fitness": 0.85
  }
]
